Give measured Percentages for different degrees % >++ Degrees(I, II) for each item. Keep answers brief.
tested on: in vitro eye lens of rabbits; assay: resisting oxidative damage to in vitro eye lens of rabbits induced by H2O2 (lens opacification grading); assay type: cell-based; conditions: rabbit lens, 2% H2O2 + 0.02% FeCl3, 24 h culture; sample and BDL 0.5 mmol/L, vitamin C 1 mmol/L
// units = %; emit number, no label

// Percentages for different degrees % >++ Degrees(I, II) value for O=C1O[C@H]([C@@H](O)CO)C(O)=C1O [VC, vitamin C, reference compound] : 58

Record NCCCC[C@H](N)C(=O)O.NCCCC[C@H](N)C(=O)O.O=C(O)C(Oc1nn(Cc2cccc(Cl)c2)c2ccccc12)C(=O)O [Y19] . Reported Percentages for different degrees % >++ Degrees(I, II): 100

Sure, the documented Percentages for different degrees % >++ Degrees(I, II) for NCCCC[C@H](N)C(=O)O.NCCCC[C@H](N)C(=O)O.O=C(O)C(Oc1nn(Cc2ccccc2)c2ccccc12)C(=O)O [Y5] is 67

Note to self: Percentages for different degrees % >++ Degrees(I, II) recorded for O=C(O)COc1nn(Cc2ccccc2)c2ccccc12 [BDL, Bendazac lysine, reference compound] was 25

---

Could you please report measured Percentages for different degrees % >++ Degrees(I, II) for the items listed next?
tested on: in vitro eye lens of rabbits; assay: resisting oxidative damage to in vitro eye lens of rabbits induced by H2O2 (lens opacification grading); type: cell-based; conditions: rabbit lens, 2% H2O2 + 0.02% FeCl3, 24 h culture; sample and BDL 0.5 mmol/L, vitamin C 1 mmol/L
Reply with just the number (in %).

// Percentages for different degrees % >++ Degrees(I, II) value for O=C([O-])C(Oc1nn(Cc2ccccc2)c2ccccc12)C(=O)[O-].[Na+].[Na+] [Y1] : 43

// recorded Percentages for different degrees % >++ Degrees(I, II) for N[C@@H](Cc1c[nH]cn1)C(=O)O.N[C@@H](Cc1c[nH]cn1)C(=O)O.O=C(O)C(Oc1nn(Cc2ccccc2)c2ccccc12)C(=O)O [Y4] : 33

response.value for O=C([O-])C(Oc1nn(Cc2ccccc2)c2ccccc12)C(=O)[O-].[K+].[K+] [Y2] (field: Percentages for different degrees % >++ Degrees(I, II)) = 71

Form: compound = O=C([O-])C(Oc1nn(Cc2cccc(F)c2)c2ccccc12)C(=O)[O-].[Na+].[Na+] [Y10] ; Percentages for different degrees % >++ Degrees(I, II) = 20

---

tested on: in vitro eye lens of rats; assay: resisting oxidative damage to in vitro eye lens of rats induced by H2O2 (lens opacification grading); format: cell-based; conditions: rat lens, sample 0.5 mmol/L; summary of table 2
measuredAttribute: inhibitory effects on oxidative damage to in vitro eye lens of rats induced by H2O2

O=C([O-])C(Oc1nn(Cc2cccc(F)c2)c2ccccc12)C(=O)[O-].[Na+].[Na+]    not significant
O=C([O-])C(Oc1nn(Cc2ccccc2)c2ccccc12)C(=O)[O-].[K+].[K+]    not significant

Data provenance: patent US8637677B2
